These measurements were taken from ChEMBL document CHEMBL1961873.

System: Ribosomal protein S6 kinase alpha-2 (Homo sapiens);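 further: value is the mean inhibition of RSK3 within GSK PKIS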
Condition notes: at 1 µM
inhibition overview
Numbers only here, please. The scale is %.

Answered cases to consult:
[[record]]
smiles_data = "COc1ccc(Nc2ncc(-c3ccccc3)o2)cc1OC"
unit_tag = "%"
observed_result = 4.35

[[record]]
smiles_data = "O=C(O[C@H]1CN[C@H](C#Cc2cc3ncnc(Nc4ccc5c(cnn5Cc5ccccc5)c4)c3s2)C1)N1CCOCC1"
unit_tag = "%"
observed_result = -1.02


Reported inhibition of `CN1CCC(n2cnc(-c3ccc(F)cc3)c2-c2ccnc(NCCO)n2)CC1` : 4.29

Value of measured inhibition for the entry `CS(=O)(=O)CCNCc1ccc(-c2ccc3ncnc(Nc4ccc(OCc5ccccc5)cc4)c3c2)o1` : 4.28

response.value for `N#Cc1cccc(Nc2ncc(-c3ccccc3)o2)c1` (field: inhibition) = 1.32

What the record says about `N#Cc1ccc2c(-c3ccnc(NC4CC4)n3)c(-c3ccc(F)cc3)nn2c1` : inhibition is 1.48

Recorded result, `O=C(O[C@H]1CN[C@H](C#Cc2cc3ncnc(Nc4ccc(OCc5cccc(F)c5)c(Cl)c4)c3s2)C1)N1CCOCC1` , inhibition: 3.4

Looking up `CNC(=O)c1cncc(/C=C/c2ccccc2C)c1` , I found its inhibition recorded as 2.74

Summary for this compound, `COc1cc(N2CCN(C(C)C)CC2)ccc1Nc1nc(Nc2cccc(F)c2C(=O)O)c2cc[nH]c2n1` : inhibition is 5.21

inhibition measured on `NS(=O)(=O)c1ccc(N/N=C2\C(=O)Nc3cccc(CCc4ccncc4)c32)cc1` = 7.37

====

System: Mast/stem cell growth factor receptor Kit (Homo sapiens), P10721 [D816V]
Sequence (P10721 whole entry D816V): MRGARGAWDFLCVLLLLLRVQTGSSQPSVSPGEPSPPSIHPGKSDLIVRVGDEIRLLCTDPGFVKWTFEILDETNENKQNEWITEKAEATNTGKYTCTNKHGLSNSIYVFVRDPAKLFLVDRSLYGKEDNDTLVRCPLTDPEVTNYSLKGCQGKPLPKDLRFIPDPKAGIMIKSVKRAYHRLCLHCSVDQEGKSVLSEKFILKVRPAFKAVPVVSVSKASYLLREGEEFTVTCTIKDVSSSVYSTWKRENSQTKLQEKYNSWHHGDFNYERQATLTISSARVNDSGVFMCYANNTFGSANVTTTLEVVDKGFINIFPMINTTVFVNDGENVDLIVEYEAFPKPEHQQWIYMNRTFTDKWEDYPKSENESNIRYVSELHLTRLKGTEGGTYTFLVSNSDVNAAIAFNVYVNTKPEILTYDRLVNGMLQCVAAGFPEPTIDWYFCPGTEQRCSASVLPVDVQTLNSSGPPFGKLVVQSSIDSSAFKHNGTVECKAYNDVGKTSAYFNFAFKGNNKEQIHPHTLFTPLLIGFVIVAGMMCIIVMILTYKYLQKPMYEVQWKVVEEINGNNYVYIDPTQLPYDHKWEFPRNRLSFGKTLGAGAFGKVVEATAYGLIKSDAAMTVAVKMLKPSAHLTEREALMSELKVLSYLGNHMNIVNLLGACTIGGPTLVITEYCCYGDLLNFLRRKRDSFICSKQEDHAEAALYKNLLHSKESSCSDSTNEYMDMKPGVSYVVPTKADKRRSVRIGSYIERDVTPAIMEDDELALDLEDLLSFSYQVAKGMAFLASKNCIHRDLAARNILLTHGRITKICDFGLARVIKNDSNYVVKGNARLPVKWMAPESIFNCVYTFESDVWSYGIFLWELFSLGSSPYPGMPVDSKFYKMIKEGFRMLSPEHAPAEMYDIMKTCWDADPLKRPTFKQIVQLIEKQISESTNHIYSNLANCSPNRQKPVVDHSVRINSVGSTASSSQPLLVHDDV
Condition notes: at 1 µM
Experimental readout: inhibition (%)
All answers are understood in %, so give the number only.

[[record]]
smiles_data = "CN(C)CCNC(=O)Nc1ccc(N(C)c2ccnc(Nc3ccc(CS(C)(=O)=O)cc3)n2)cc1"
unit_tag = "%"
observed_result = 3.76

[[record]]
smiles_data = "COc1ccccc1-c1cc(/C=C2\\C(=O)Nc3ncc(Br)cc32)cc(Br)c1O"
unit_tag = "%"
observed_result = 1.87

[[record]]
smiles_data = "Cc1cc(O)cc(C)c1/C=C/c1cncc(C(N)=O)c1"
unit_tag = "%"
observed_result = 2.03

[[record]]
smiles_data = "O=C1Nc2ccccc2/C1=C1\\CCc2cc(O)ccc21"
unit_tag = "%"
observed_result = 1.34

[[record]]
smiles_data = "Fc1ccc(Nc2nccc(-c3c(-c4ccc(C(F)(F)F)cc4)nn4ncccc34)n2)cc1F"
unit_tag = "%"
observed_result = 2.45


// moving on: another record for inhibition
Short answer for `COc1cccc(Nc2nccc(-c3cnn4ncccc34)n2)c1` : inhibition was 4.28

====

System: Serine/threonine-protein kinase 26 (Homo sapiens)
Condition notes: at 0.1 µM
Description: GSK_PKIS: MST4 mean inhibition at 0.1 uM [Nanosyn]
Experimental readout: inhibition (%)
Your answer should be a plain number; it is taken to be in %.

Worked cases, answers included:
[[record]]
smiles_data = "CCn1c(-c2nonc2N)nc2cncc(C(=O)NCCNC)c21"
observed_result = -3.72

[[record]]
smiles_data = "CNC(=O)c1ncccc1Nc1nc(Nc2cc3c(cc2OC)CCCN3C(=O)CN(C)C)nc2[nH]ccc12"
observed_result = -2.11

[[record]]
smiles_data = "COc1cc(N2CCN(C(C)C)CC2)ccc1Nc1nc(Nc2cccc3ncccc23)c2cc[nH]c2n1"
observed_result = -0.29

[[record]]
smiles_data = "COc1ccccc1-c1cc(/C=C2\\C(=O)Nc3ncc(Br)cc32)cc(Br)c1O"
observed_result = 2.55

[[record]]
smiles_data = "COc1cccc(-n2ncc3c(N/N=C/c4ccc(C(=O)NCCN(C)C)cc4)ncnc32)c1"
observed_result = -1.8

[[record]]
smiles_data = "CS(=O)(=O)CCNCc1ccc(-c2ccc3ncnc(Nc4ccc(OCc5cccc(C(F)(F)F)c5)cc4)c3c2)o1"
observed_result = -1.93

[[record]]
smiles_data = "O=C(O[C@H]1CN[C@H](C#Cc2cc3ncnc(Nc4ccc5c(ccn5Cc5cc(F)ccc5F)c4)c3s2)C1)N1CCOCC1"
observed_result = -1.74

[[record]]
smiles_data = "COc1ccc(-c2nn3ncccc3c2-c2ccnc(Nc3ccc(F)c(F)c3)n2)cc1"
observed_result = -0.41


Note: attention shifts to another entry.
Serine/threonine-protein kinase 26 (Homo sapiens) inhibition of `CC1(C)CC(n2cnc(-c3ccc(F)cc3)c2-c2ccnc(N)n2)CC(C)(C)N1` is -0.28
